Cited source: patent US20080139534A1

- System: poly(dA-dT)
- ASSAY OVERVIEW: Thermal denaturation study, DNA binding affinity (ΔTm);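 note: shift in the midpoint temperature of the thermal melting curve of poly(dA-dT), each value the mean of two or more independent determinations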
- MEASUREMENT SETUP: 1:5 compound to base pair ratio
Entries whose DNA Binding Δ Tm Poly (dA-dT) is below 2 °C take met; entries at or above 2 °C take not met.

>>> class_assignment("CCCNC(=N)c1ccc(N2CCN(c3ccc(C(=N)NCCC)cc3)CC2)cc1.Cl.Cl [63N]")
"not met"
>>> class_assignment("N=C(NO)c1ccc(NC(=O)c2ccc(C(=O)Nc3ccc(C(=N)NO)cc3)cc2)cc1 [compound 0333]")
"met"
>>> class_assignment("N=C(N)c1ccc(NC(=O)CCCCC(=O)Nc2ccc(C(=N)N)cc2)cc1 [compound 0702]")
"not met"
>>> class_assignment("CCCCCCNC(=N)c1ccc(N2CCN(c3ccc(C(=N)NCCCCCC)cc3)CC2)cc1.Cl.Cl [compound 0128]")
"not met"
>>> class_assignment("N#Cc1ccc(N2CCN(c3ccc(C#N)cc3)CC2)cc1 [compound 0101]")
"met"
>>> class_assignment("C(=NNc1ccccc1)c1ccc(N2CCN(c3ccc(C=NNc4ccccc4)cc3)CC2)cc1 [compound 0116]")
"met"
>>> class_assignment("Cl.Cl.N=C(NC1CCCCCC1)c1ccc(N2CCN(c3ccc(C(=N)NC4CCCCCC4)cc3)CC2)cc1 [compound 0129]")
"not met"
>>> class_assignment("CCC(C)CNC(=N)c1ccc(N2CCN(c3ccc(C(=N)NCC(C)CC)cc3)CC2)cc1.Cl.Cl (stereo not drawn) [compound 0138]")
"not met"
>>> class_assignment("N=C(N)c1ccc(COc2ccccc2OCc2ccc(C(=N)N)cc2)cc1 [compound 0519]")
"met"
>>> class_assignment("N=C(N)c1ccc(OCc2ccc(COc3ccc(C(=N)N)cc3)cc2)cc1 [compound 0508]")
"not met"
>>> class_assignment("Cl.Cl.N=C(NC1CC1)c1ccc(N2CCCN(c3ccc(C(=N)NC4CC4)cc3)CC2)cc1 [73C]")
"not met"
>>> class_assignment("CCOC(=O)c1ccc(N2CCN(c3ccc(C(=O)OCC)cc3)CC2)cc1 [compound 0118]")
"met"
>>> class_assignment("Cl.Cl.N=C(N)c1ccc(N2CCCN(c3ccc(C(=N)N)cc3)CC2)cc1 [7AM]")
"not met"
>>> class_assignment("N=C(NO)c1ccc(C(=O)Nc2ccc(NC(=O)c3ccc(C(=N)NO)cc3)cc2)cc1 [compound 0353]")
"met"
>>> class_assignment("O=Cc1ccc(N2CCN(c3ccc(C=O)cc3)CC2)cc1 [compound 0107]")
"met"
>>> class_assignment("CN1CCN(C)C1c1ccc(N2CCN(c3ccc(C4N(C)CCN4C)cc3)CC2)cc1 [compound 0108]")
"met"
>>> class_assignment("N=C(NO)c1ccc(NC(=O)c2cccc(C(=O)Nc3ccc(C(=N)NO)cc3)c2)cc1 [compound 0323]")
"met"
>>> class_assignment("CN=C(N)c1ccc(N2CCN(c3ccc(C(N)=NC)cc3)CC2)cc1 [compound 0112]")
"not met"
>>> class_assignment("CCCCCNC(=N)c1ccc(N2CCN(c3ccc(C(=N)NCCCCC)cc3)CC2)cc1.Cl.Cl [compound 0127]")
"not met"
>>> class_assignment("c1cc(N2CCN(c3ccc(C4OCCO4)cc3)CC2)ccc1C1OCCO1 [compound 0111]")
"met"
>>> class_assignment("c1ccc(N2CCN(c3ccccc3)C2c2ccc(N3CCN(c4ccc(C5N(c6ccccc6)CCN5c5ccccc5)cc4)CC3)cc2)cc1 [compound 0109]")
"met"
>>> class_assignment("NNC(=O)c1ccc(N2CCN(c3ccc(C(=O)NN)cc3)CC2)cc1 [compound 0117]")
"met"
>>> class_assignment("N=C(N)c1ccc(OCCCCCOc2ccc(C(=N)N)cc2)cc1 [Pentamidine, reference compound]")
"not met"
>>> class_assignment("CCCCNC(=N)c1ccc(N2CCCN(c3ccc(C(=N)NCCCC)cc3)CC2)cc1.Cl.Cl [74N]")
"not met"
>>> class_assignment("Cl.Cl.N=C(NC1CC1)c1ccc(N2CCN(c3ccc(C(=N)NC4CC4)cc3)CC2)cc1 [63C]")
"not met"
>>> class_assignment("CCCCCCCNC(=N)c1ccc(N2CCN(c3ccc(C(=N)NCCCCCCC)cc3)CC2)cc1.Cl.Cl [compound 0133]")
"not met"
>>> class_assignment("C(=C1CCCN(c2ccc(C3=NCCN3)cc2)C1)c1ccc(C2=NCCN2)cc1.Cl.Cl (mixture of isomers) [3SF]")
"not met"
>>> class_assignment("CC(C)CCNC(=N)c1ccc(N2CCN(c3ccc(C(=N)NCCC(C)C)cc3)CC2)cc1.Cl.Cl [compound 0135]")
"not met"
>>> class_assignment("CC(=O)c1ccc(N2CCN(c3ccc(C(C)=O)cc3)CC2)cc1 [compound 0123]")
"met"
>>> class_assignment("Cl.Cl.c1cc(C2=NCCN2)ccc1CC1CCCN(c2ccc(C3=NCCN3)cc2)C1 (stereo not drawn) [4CF]")
"not met"
>>> class_assignment("O=[N+]([O-])c1ccc(N2CCN(c3ccc([N+](=O)[O-])cc3)CC2)cc1 [compound 0119]")
"met"
>>> class_assignment("O=C(Nc1ccc(C2=NCCN2)cc1)C1CC1C(=O)Nc1ccc(C2=NCCN2)cc1 (stereo not drawn) [8IM]")
"not met"
